Test system: Aβ40
Assay: Cellular Aβ-lowering assay
Assay type: cell-based
Settings: HEK293 cells stably expressing human APP695, Aβ40 in supernatant by ELISA after 18-20 hrs; read-out: Cellular assay Abeta40 IC50
pIC50: −log10 of the molar value. Structures can show the parent of a compound that is named as a salt.
Mark TRUE for reported pIC50 of 7 or greater; mark FALSE for anything smaller.

compound	tested-target	assigned-label
Cc1nc(C(=O)Nc2ccc(F)c([C@@]3(C)N=C(N)COCC3(F)F)c2)c(C(F)(F)F)o1 [Example 113]	Aβ40	TRUE
CC[C@]1(c2cc(NC(=O)c3nn(C)cc3Cl)ccc2F)N=C(N)COCC1(F)F [Example 85]	Aβ40	FALSE
CCc1n[nH]c(C(=O)Nc2ccc(F)c([C@@]3(CC)N=C(N)COCC3(F)F)c2)c1C [Example 93]	Aβ40	FALSE
CC[C@]1(c2cc(NC(=O)c3cccnn3)ccc2F)N=C(N)COCC1(F)F [Example 81]	Aβ40	FALSE
C[C@@]1(c2cc(NC(=O)C3(C(F)(F)F)CC3)ccc2F)CCOCC(N)=N1 [Example 17]	Aβ40	FALSE
C[C@@]1(c2cc(NC(=O)c3ccc(Cl)cn3)ccc2F)CCOCC(N)=N1 [Example 5, formate]	Aβ40	TRUE
C[C@]1(c2cc(NC(=O)c3n[nH]cc3Cl)ccc2F)N=C(N)COCC1(F)F [Example 96]	Aβ40	TRUE
C[C@]1(c2cc(NC(=O)c3ccc(F)cn3)ccc2F)N=C(N)COC[C@@H]1F [Example 62]	Aβ40	TRUE
C[C@]1(c2cc(NC(=O)c3ccc(F)cn3)ccc2F)N=C(N)COCC1(F)F [Example 29, formate]	Aβ40	TRUE
CC[C@]1(c2cc(NC(=O)c3ncc(Cl)cc3Cl)ccc2F)N=C(N)COCC1(F)F [Example 83]	Aβ40	TRUE
NC1=N[C@@]2(c3cccc(NC(=O)c4ccc(Cl)cn4)c3)C[C@H]2COC1 (racemic) [Example 3]	Aβ40	TRUE
CC[C@]1(c2cc(NC(=O)c3ccc(Cl)cn3)ccc2F)N=C(N)COCC1(F)F [Example 82]	Aβ40	TRUE
C[C@]1(c2cc(NC(=O)c3ccc(OCC(F)(F)F)cn3)ccc2F)N=C(N)COCC1(F)F [Example 49, formate]	Aβ40	TRUE
C[C@]1(c2cc(NC(=O)c3csc(Cl)n3)ccc2F)N=C(N)COCC1(F)F [Example 66, formate]	Aβ40	TRUE
C[C@]1(c2cc(NC(=O)c3ncccc3F)ccc2F)N=C(N)COCC1(F)F [Example 27]	Aβ40	TRUE
C[C@]1(c2cc(NC(=O)c3cnc(OCF)cn3)ccc2F)N=C(N)COCC1(F)F [Example 103, formate]	Aβ40	TRUE
CC1(C)OCC(N)=N[C@](C)(c2cc(NC(=O)c3ccc(Cl)cn3)ccc2F)C1(F)F [Example 110]	Aβ40	TRUE
CC[C@]1(c2cc(NC(=O)c3nn(C(F)F)cc3Cl)ccc2F)N=C(N)COCC1(F)F [Example 116]	Aβ40	TRUE
C[C@]1(c2cc(NC3CCCC3)ccc2F)N=C(N)COCC1(F)F [Example 64]	Aβ40	FALSE
C[C@]1(c2cc(NC(=O)c3nn(C(F)F)cc3Cl)ccc2F)N=C(N)COCC1(F)F [Example 114]	Aβ40	TRUE
C[C@]1(c2cc(NC(=O)c3ccc(Cl)cn3)ccc2F)N=C(N)COCC1(F)F [Example 26]	Aβ40	TRUE
CC[C@]1(c2cc(NC(=O)c3ccccn3)ccc2F)N=C(N)COCC1(F)F [Example 75]	Aβ40	FALSE
Cn1cc(Cl)c(C(=O)Nc2ccc(F)c([C@@]3(C)N=C(N)COCC3(F)F)c2)n1 [Example 41, formate]	Aβ40	TRUE
Cc1cc(Cl)cnc1C(=O)Nc1ccc(F)c([C@@]2(C)N=C(N)COCC2(F)F)c1 [Example 31, formate]	Aβ40	TRUE
CC[C@@]1(c2cc(NC(=O)c3ccc(F)cn3)ccc2F)CCOCC(N)=N1 [Example 13]	Aβ40	FALSE
CC1(C)C[C@@](C)(c2cc(NC(=O)c3ncc(C(F)(F)F)cc3Cl)ccc2F)N=C(N)CO1 [Example 21]	Aβ40	TRUE
CC[C@]1(c2cc(NC(=O)c3ncccc3C(F)(F)F)ccc2F)N=C(N)COCC1(F)F [Example 77]	Aβ40	FALSE
NC1=N[C@@]2(c3cc(NC(=O)c4ccc(OCC(F)(F)F)cn4)ccc3F)C[C@H]2COC1 (racemic) [Example 2]	Aβ40	FALSE

====

Measured pIC50 of individual entries
Tested on: Aβ40
Assay: Cellular Aβ-lowering assay
Assay type: cell-based
Conditions: HEK293 cells stably expressing human APP695, Aβ40 in supernatant by ELISA after 18-20 hrs; read-out: Cellular assay Abeta40 IC50
pIC50: −log10 of the molar value. Where a name gives a salt, the structure may show the parent alone.
property-name: pIC50

compound	property-name	value
C[C@@]1(c2cc(NC(=O)c3ncc(C(F)(F)F)cc3Cl)ccc2F)COCCC(N)=N1	pIC50	7.31
C[C@]1(c2cc(NC(=O)c3ncccc3OCC(F)(F)F)ccc2F)N=C(N)COCC1(F)F	pIC50	6.80
CC1(C)OCC(N)=N[C@](C)(c2cc(NC(=O)c3ccc(C#N)cn3)c(F)cc2F)C1(F)F	pIC50	7.47
C[C@@]1(c2cc(NC(=O)C3(C(F)(F)F)CCC3)ccc2F)CCOCC(N)=N1	pIC50	5.23
C[C@]1(c2cc(NC(=O)c3nsc(Cl)n3)ccc2F)N=C(N)COCC1(F)F [Example 73, formate]	pIC50	6.52
NC1=N[C@@]2(c3cccc(NC(=O)c4ncc(C(F)(F)F)cc4Cl)c3)C[C@H]2COC1 (stereo in doubt)	pIC50	7.00
C[C@]1(c2cc(NC(=O)c3cnc(C(F)F)cn3)ccc2F)N=C(N)COCC1(F)F [Example 105, formate]	pIC50	7.89

====

System: Aβ40
Test: Cellular Aβ-lowering assay
Type: cell-based
Conditions: HEK293 cells stably expressing human APP695, Aβ40 in supernatant by ELISA after 18-20 hrs; read-out: Cellular assay Abeta40 IC50
Counter-ions that a name gives are not always drawn.
Response field label: string, one of class 1 (IC50 strictly below 10 nM) or class 0.

compound	assigned-label
CCc1n[nH]c(C(=O)Nc2ccc(F)c([C@@]3(C)N=C(N)COCC3(F)F)c2)c1C [Example 107]	class 0
Cc1c[nH]nc1C(=O)Nc1ccc(F)c([C@@]2(C)N=C(N)COCC2(F)F)c1 [Example 97]	class 0
CC1(C)C[C@@](C)(c2cc(NC(=O)c3ccc(OC(F)F)cn3)ccc2F)N=C(N)CO1 [Example 11]	class 1
CC[C@]1(c2cc(NC(=O)c3n[nH]cc3C)ccc2F)N=C(N)COCC1(F)F [Example 92]	class 0
C[C@]1(c2cc(NC(=O)c3ccc(C#N)cn3)ccc2F)N=C(N)COC[C@@H]1F [Example 63]	class 1
C[C@]1(c2cc(NC(=O)c3ncc(F)cc3F)ccc2F)N=C(N)COCC1(F)F [Example 32, formate]	class 1
C[C@]1(c2cc(NC(=O)C3CC3(F)F)ccc2F)N=C(N)COCC1(F)F (stereo partly shown) [Example 34, formate]	class 0
C[C@]1(c2cc(NC(=O)c3ccc(OCC(F)F)cn3)ccc2F)N=C(N)COCC1(F)F [Example 60, formate]	class 0
C[C@@]1(c2cc(NC(=O)c3ccc(F)cn3)ccc2F)C[C@@H](c2ccccc2)OCC(N)=N1 [Example 68]	class 0

====

Biological target: endogenous cellular BACE2 (Rattus norvegicus, UniProt Q6IE75)
Construct: endogenous cellular BACE2 in the Ins1e rat cell line; endogenous in cells
Sequence (Q6IE75 63-514): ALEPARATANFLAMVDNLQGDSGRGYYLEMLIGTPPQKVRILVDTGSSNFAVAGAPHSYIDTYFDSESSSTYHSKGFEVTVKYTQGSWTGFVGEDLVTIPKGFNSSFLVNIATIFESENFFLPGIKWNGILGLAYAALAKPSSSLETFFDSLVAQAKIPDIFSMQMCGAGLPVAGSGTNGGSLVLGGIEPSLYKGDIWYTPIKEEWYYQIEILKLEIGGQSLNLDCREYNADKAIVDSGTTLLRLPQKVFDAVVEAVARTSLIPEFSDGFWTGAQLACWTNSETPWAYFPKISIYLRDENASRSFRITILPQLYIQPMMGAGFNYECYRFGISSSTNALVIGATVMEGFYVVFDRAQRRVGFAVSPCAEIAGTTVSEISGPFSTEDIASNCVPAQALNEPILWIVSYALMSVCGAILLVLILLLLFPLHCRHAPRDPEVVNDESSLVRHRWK
Assay: Assay for BACE inhibition by measuring cellular TMEM27 cleavage
Conditions: INS-TMEM27 (INS1e-derived) cells, shed human TMEM27 in supernatant by ELISA
pIC50: −log10 of the molar value. Counter-ions that a name gives are not always drawn.
Measured pIC50 of individual entries

compound	pIC50
CC[C@]1(c2cc(NC3CCCC3)ccc2F)N=C(N)COCC1(F)F	8.04
CC1(C)OCC[C@@](C)(c2cc(NC(=O)c3ccc(Cl)cn3)ccc2F)N=C1N	7.34
C[C@]1(c2cc(NC(=O)c3ncccc3OCC(F)(F)F)ccc2F)N=C(N)COC[C@@H]1F	6.89
CCn1cc(Cl)c(C(=O)Nc2ccc(F)c([C@@]3(C)N=C(N)COCC3(F)F)c2)n1	7.18
C[C@]1(c2cc(NC(=O)c3ccn(C(F)F)n3)ccc2F)N=C(N)COCC1(F)F [Example 44, formate]	8.92
NC1=N[C@@]2(c3cccc(NC(=O)c4ncc(C(F)(F)F)cc4Cl)c3)C[C@H]2COC1 (stereo in doubt)	5.07

====

Measured IC50 of individual entries
System: Aβ40
Test: Cellular Aβ-lowering assay
Type: cell-based
Settings: HEK293 cells stably expressing human APP695, Aβ40 in supernatant by ELISA after 18-20 hrs; read-out: Cellular assay Abeta40 IC50
Counter-ions that a name gives are not always drawn.

compound	IC50, nM
CC[C@]1(c2cc(NC(=O)c3ncccc3Cl)ccc2F)N=C(N)COCC1(F)F [Example 76]	4
C[C@]1(c2cc(NC(=O)c3ncc(C(F)(F)F)cc3Cl)ccc2F)N=C(N)COCC1(F)F [Example 25]	7
COc1cnc(C(=O)Nc2ccc(F)c([C@@]3(C)N=C(N)COCC3(F)F)c2)cn1 [Example 109, formate]	1.9
CC1(C)OCCC(C)(c2cc(NC(=O)c3ccc(F)cn3)ccc2F)N=C1N (stereo not shown) [Example 28]	340

Source: patent US8673894B2
